# testName: ex-vivo olfactory evaluation test on incubated sweat
# conditionSet: incubated sweat; release of odorous volatile molecules
readout: Pleasantness of the odor

itemSmiles: N[C@@H](Cc1c[nH]c2ccccc12)C(=O)OCc1ccccc1
readout: Pleasantness of the odor
result: generate a pleasant odor
--
itemSmiles: CC(C)(C)OC(=O)[C@@H](N)Cc1c[nH]c2ccccc12.Cl
readout: Pleasantness of the odor
result: generate a pleasant odor
